# test system: recombinant human KLK5 (human) (UniProt Q9Y337)
# Sequence (Q9Y337 67-293): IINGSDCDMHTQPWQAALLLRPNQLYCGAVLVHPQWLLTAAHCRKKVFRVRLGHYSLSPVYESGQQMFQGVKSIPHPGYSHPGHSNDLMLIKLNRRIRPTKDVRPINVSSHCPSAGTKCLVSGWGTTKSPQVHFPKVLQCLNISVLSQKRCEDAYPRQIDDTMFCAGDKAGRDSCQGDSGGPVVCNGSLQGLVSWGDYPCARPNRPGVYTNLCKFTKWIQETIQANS
# method notes: Kiapp assay curve, 0.125 nM KLK5, Z-VPR-pNA
IC50 (read off the curve) values, listed per item
reported endpoint: IC50 (read off the curve) (nM)

[[record]]
binder = "3-3F5 (antibody, V domains shown) VH: QSVKESEGGLFKPTDTLTLTCTVSGFSLNDYGVSWVRQAPGNGLEWIGAIGSSGVAWYANWAKGRSTITRNTNLNTVTLKMASLTAADTATYFCARDRDYGYRADDATSGMDLWGPGTLVTVSS VL: AYDMTQTPASVEAAVGGTVTIKCQASESIGNALAWYQQKPGQPPKLLIYDASDLASGVPSRFKGSGSGTQFTLTISGVECADAATYYCQQGDSHNNVDNIFGGGTEVVVK"
reported_endpoint = "IC50 (read off the curve)"
reading = 0.04

[[record]]
binder = "9F2 (antibody, V domains shown) VH: QSVKESEGGLFKPTDNLTLTCTVSGFSLSSYGVSWVRQAPGNGLEYIGFIGSGGSPYYASWAKSRSTITRNTNLNTVTLKMTSLTAADTATYFCARDDVGGGKSLDIWGPGTLVTVSS VL: NIVMTQTPASVEVAVGGTVIIKCQASQSISNYLSWYHQKSGQRPRLLIYSASTLASGVPSRFKGSGSGTQFTLTISDLECADAATYYCHQDYTSNSVDNTFGGGTEVVVK"
reported_endpoint = "IC50 (read off the curve)"
reading = 0.2

[[record]]
binder = "9H5 (antibody, V domains shown) VH: QSVKESEGGLFKPTDNLTLTCTVSGFSLSSYGVSWVRQAPGNGLEYIGFIGSGGFAYYASWAKSRSTITRNTNLNTVTLKMTSLTAADTATYFCARDDVGGGKSLDIWGPGTVVTVSV VL: NIVMTQTPASVEAAVGGTVTINCQASQSISSYLSWYQQKSGQRPKLLIFSASTLASGVPSRFTGSGSGTQFTLTISDLQCADAATYYCHQDYTSSNVDNTFGGGTEVVVK"
reported_endpoint = "IC50 (read off the curve)"
reading = 0.2

